What mortality at 400 ppm was measured for each of the following?
test system: Twospotted spider mites (Tetranychus urticae Koch); assay: Mite/insect screen, sprayed squash cotyledons (SM); format: in vivo; conditions: Tetranychus urticae, percent mortality; spray rate 400 ppm; read-out: SM RESULTS %
Numeric only. Scale: %

Task: Find the recorded mortality at 400 ppm belonging to CCC(COc1ncnc2c(F)cccc12)c1ccc(-c2ccccc2)cc1 (centres unmarked) [Example 197] and report it.
Result: 0

Task: Find the recorded mortality at 400 ppm belonging to Fc1cccc2c(OCCc3ccccc3)ncnc12 [Example 95, 8-fluoro-4-(2-phenylethoxy)quinazoline] and report it.
Result: 0

Task: Find the recorded mortality at 400 ppm belonging to CC(C)c1ccc(CCCCOc2ncnc3ccccc23)cc1 [Example 168] and report it.
Result: 0

Task: Find the recorded mortality at 400 ppm belonging to FC(F)(F)c1ccc(CCOc2ncnc3ccccc23)cc1 [Example 134] and report it.
Result: 100

Task: Find the recorded mortality at 400 ppm belonging to COc1cccc(CCOc2ncnc3ccccc23)c1 [Example 13, 4-[2-(3-methoxyphenyl)ethoxy]quinazoline] and report it.
Result: 90

Task: Find the recorded mortality at 400 ppm belonging to CC(C)c1ccccc1CCOc1ncnc2ccccc12 [Example 135] and report it.
Result: 0

Task: Find the recorded mortality at 400 ppm belonging to Oc1ccc(CCCOc2ncnc3ccccc23)cc1 [Example 121] and report it.
Result: 0

Task: Find the recorded mortality at 400 ppm belonging to CC(C)(C)c1ccc(CCOc2ncnc3c(Cl)cccc23)cc1 [Example 185] and report it.
Result: 30

Task: Find the recorded mortality at 400 ppm belonging to FC(F)(F)Oc1ccc2ncnc(NCCc3ccc(Oc4ccccc4)cc3)c2c1 [Example 44] and report it.
Result: 0

Task: Find the recorded mortality at 400 ppm belonging to CCC(COc1ncnc2ccccc12)c1ccc(-c2ccccc2)cc1 (centres unmarked) [Example 142] and report it.
Result: 60

Task: Find the recorded mortality at 400 ppm belonging to CC(C)(C)c1ccc(CCOc2ncnc3cc(Cl)ccc23)cc1 [Example 136] and report it.
Result: 0

Task: Find the recorded mortality at 400 ppm belonging to CC(C)Oc1cccc(CCOc2ncnc3ccccc23)c1 [Example 146] and report it.
Result: 60

Task: Find the recorded mortality at 400 ppm belonging to Clc1ccccc1CCOc1ncnc2ccccc12 [Example 11, 4-[2-(2-chlorophenyl)ethoxy]quinazoline] and report it.
Result: 0

Task: Find the recorded mortality at 400 ppm belonging to CC(C)C(COc1ncnc2ccccc12)c1ccccc1 (centres unmarked) [Example 165, 4-(3-methyl-2-phenylbutoxy)quinazoline] and report it.
Result: 0

Task: Find the recorded mortality at 400 ppm belonging to Cc1cccc(CCOc2ncnc3ccccc23)c1 [Example 97, 4-[2-(3-methylphenyl)ethoxy]quinazoline] and report it.
Result: 0

Task: Find the recorded mortality at 400 ppm belonging to COc1cc(CCOc2ncnc3ccccc23)ccc1O [Example 147] and report it.
Result: 0

Task: Find the recorded mortality at 400 ppm belonging to Cc1cccc2c(OCCc3ccc(C(C)(C)C)cc3)ncnc12 [Example 139] and report it.
Result: 100

Task: Find the recorded mortality at 400 ppm belonging to CC(C)c1ccc(CCOc2ncnc3ccccc23)cc1 [Example 88] and report it.
Result: 0

Task: Find the recorded mortality at 400 ppm belonging to Fc1cccc2c(OCCc3ccc(-c4ccccc4)cc3)ncnc12 [Example 116] and report it.
Result: 0

Task: Find the recorded mortality at 400 ppm belonging to FC(F)(F)c1cccc(CCCOc2ncnc3ccccc23)c1 [Example 196] and report it.
Result: 0

Task: Find the recorded mortality at 400 ppm belonging to Oc1cccc(CCOc2ncnc3ccccc23)c1 [Example 111, 4-[2-(3-hydroxyphenyl)ethoxy]quinazoline] and report it.
Result: 0

Task: Find the recorded mortality at 400 ppm belonging to Fc1ccc(CCOc2ncnc3ccccc23)cc1 [Example 84, 4-[2-(4-fluorophenyl)ethoxy]quinazoline] and report it.
Result: 0

Task: Find the recorded mortality at 400 ppm belonging to Oc1ccccc1CCOc1ncnc2ccccc12 [Example 114, 4-[2-(2-hydroxyphenyl)ethoxy]quinazoline] and report it.
Result: 0

Task: Find the recorded mortality at 400 ppm belonging to Fc1cccc2c(OCCc3ccc(C(F)(F)F)cc3)ncnc12 [Example 118] and report it.
Result: 0

Task: Find the recorded mortality at 400 ppm belonging to Clc1ccc(CCOc2ncnc3ccccc23)cc1 [Example 5, 4-[2-(4-chlorophenyl)ethoxy]quinazoline] and report it.
Result: 50

Task: Find the recorded mortality at 400 ppm belonging to OC(CNc1ncnc2ccccc12)c1ccc2ccccc2c1 (centres unmarked) [Example 105] and report it.
Result: 0

Task: Find the recorded mortality at 400 ppm belonging to c1ccc2c(c1)Cc1cc(CCOc3ncnc4ccccc34)ccc1-2 [Example 20, 4-[2-(9H-fluoren-2-yl)ethoxy]quinazoline] and report it.
Result: 100

Task: Find the recorded mortality at 400 ppm belonging to CC(=O)N(CCc1ccc(-c2ccccc2)cc1)c1ncnc2ccccc12 [Example 108] and report it.
Result: 90

Task: Find the recorded mortality at 400 ppm belonging to COc1ccccc1CCOc1ncnc2c(F)cccc12 [Example 131] and report it.
Result: 0
